Measured pKd values are reported for all entries that follow.
- SUBJECT OF TEST: T1, recombinant human Siglec-15-his protein (Bonopusbio) (human, UniProt Q6ZMC9 20-263)
- T1 construct: Bought (CW37-50 ug in the ELISA; the SPR paragraph prints CW70-50 ug); whole entry named; also called recombinant human Siglec-15 protein
- T1 sequence: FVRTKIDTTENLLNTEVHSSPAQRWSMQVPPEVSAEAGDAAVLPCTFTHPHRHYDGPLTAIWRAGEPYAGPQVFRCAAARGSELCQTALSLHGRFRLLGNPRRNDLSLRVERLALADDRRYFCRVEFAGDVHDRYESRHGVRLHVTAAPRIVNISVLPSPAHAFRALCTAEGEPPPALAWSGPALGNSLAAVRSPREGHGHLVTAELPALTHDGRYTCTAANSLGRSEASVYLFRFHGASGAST
- EXPERIMENT: SPR (Biacore T200), antibody on CM5 chip, Siglec-15-his as analyte
pKd: −log10 of the molar value.
ATTRIBUTE MEASURED: pKd

S15B1-VH4 + VL2 (antibody, V domains shown, Humanized S15B1; also called humanized S15B1 VH4+VL2; huS15B1) VH: QVQLVQSGAEVKKPGASVKVSCKASGYAFSSSWMNWVKQAPGQGLEWIGRIYPGHGETNYNGKFKDRATMTADKSTSTVYMELSSLRSEDTAVYFCARVDNSDPYYFDYWGQGTTVTVSS VL: DIVLTQSPASLAVSPGQRATITCRASKSVSTSGYSYMHWYQQKPGQPPKLLIYLASNLESGVPARFSGSGSGTDFTLTINPVEAEDTATYYCQHGRELPFTFGGGTKLEIK; 9.86
S15B1-VH1 + VL2 (antibody, V domains shown, Humanized S15B1; also called humanized S15B1 VH1+VL2; huS15B1) VH: QVQLVQSGAEVKKPGASVKVSCKASGYAFSSSWMNWVRQAPGQGLEWIGRIYPGHGETNYNGKFKDRVTMTADTSTSTVYMELSSLRSEDTAVYFCARVDNSDPYYFDYWGQGTTVTVSS VL: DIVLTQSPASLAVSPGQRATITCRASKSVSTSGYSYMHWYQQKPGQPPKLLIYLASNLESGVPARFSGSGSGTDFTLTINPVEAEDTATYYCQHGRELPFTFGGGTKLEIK; 9.80
